# experimental-target: Procathepsin L (Homo sapiens, UniProt P07711)
# Sequence (P07711 whole entry): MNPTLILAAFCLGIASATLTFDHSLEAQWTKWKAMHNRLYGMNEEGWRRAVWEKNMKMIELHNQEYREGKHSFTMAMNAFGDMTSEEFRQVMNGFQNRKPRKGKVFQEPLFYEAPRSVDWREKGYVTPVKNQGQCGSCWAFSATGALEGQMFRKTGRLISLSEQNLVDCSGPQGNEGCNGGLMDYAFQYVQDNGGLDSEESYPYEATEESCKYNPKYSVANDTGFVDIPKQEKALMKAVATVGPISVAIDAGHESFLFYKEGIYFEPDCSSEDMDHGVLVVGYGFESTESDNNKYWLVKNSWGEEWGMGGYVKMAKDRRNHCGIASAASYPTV
measured-metric: Ki
Show the value, then the unit it is measured in.

Memo: NC(=O)C(=O)C(Cc1ccccc1)NC(=O)c1ccccc1/C=C/c1ccc2ccccc2c1 (stereo unspecified) , reported Ki: 6.1 µM

----------
# experimental-target: Calpain-1 catalytic subunit (Homo sapiens)
# Sequence (P07384 whole entry): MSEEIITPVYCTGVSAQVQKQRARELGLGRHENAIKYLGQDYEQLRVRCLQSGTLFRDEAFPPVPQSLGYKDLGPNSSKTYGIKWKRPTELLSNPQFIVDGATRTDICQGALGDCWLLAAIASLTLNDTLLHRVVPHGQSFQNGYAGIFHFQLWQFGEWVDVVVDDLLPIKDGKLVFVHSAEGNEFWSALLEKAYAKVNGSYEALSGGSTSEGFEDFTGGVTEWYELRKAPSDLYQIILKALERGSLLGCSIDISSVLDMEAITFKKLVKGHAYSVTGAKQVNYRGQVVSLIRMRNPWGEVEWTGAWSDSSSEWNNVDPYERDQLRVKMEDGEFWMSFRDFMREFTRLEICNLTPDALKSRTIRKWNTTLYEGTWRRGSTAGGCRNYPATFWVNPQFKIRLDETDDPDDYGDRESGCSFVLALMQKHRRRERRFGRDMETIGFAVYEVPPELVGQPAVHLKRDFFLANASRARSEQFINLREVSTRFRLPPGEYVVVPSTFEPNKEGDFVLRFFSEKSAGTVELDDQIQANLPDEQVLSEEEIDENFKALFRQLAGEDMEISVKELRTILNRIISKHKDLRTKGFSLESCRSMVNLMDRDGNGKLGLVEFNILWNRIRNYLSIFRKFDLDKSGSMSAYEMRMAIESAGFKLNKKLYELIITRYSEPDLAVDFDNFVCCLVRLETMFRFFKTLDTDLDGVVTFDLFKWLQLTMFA
# measurement-protocol: Inhibition of calpain, using human mu-calpain isolated from erythrocytes and Suc-Leu-Tyr-AMC as the fluorogenic substrate
pKi: −log10 of the molar value.
Hi, to clarify the labels: Satisfied covers pKi from 7 upward, Not satisfied covers anything below 7.

Check the entry O=CC(Cc1ccccc1)NC(=O)c1ccccc1 (stereo unspecified) : does pKi equal or exceed 7?
Not satisfied

For this molecule, is measured pKi 7 or higher? O=CC(Cc1ccccc1)NC(=O)c1ccccc1C#Cc1ccccc1 (stereo unspecified)
Not satisfied

API: above_or_equal(metric=pKi, cutoff=7) for item COc1ccc(/C=C/c2ccccc2C(=O)NC(C=O)Cc2ccccc2)cc1OC (stereo unspecified)
Satisfied

Could you verify whether the entry O=CC(Cc1ccccc1)NC(=O)c1ccccc1C(=O)c1ccccc1 (stereo unspecified) shows pKi of no less than 7?
Not satisfied

Is the recorded value of pKi equal to or greater than 7 for this molecule? O=CC(Cc1ccccc1)NC(=O)c1ccccc1CCc1ccccc1 (stereo unspecified)
Not satisfied
